FYI, the data here is from patent US20200093909A1.

Biological target: T1, NPDP-peptide (Plasmodium falciparum)
T1 peptide: KQPADGNPDPNANPNKNN
Test: ELISA, peptide coated, titrated antibody
recorded_metric: binding result

- binder: "MGG2 (antibody, V domains shown) VH: EVQLVESGGGLVQPGGSLRLSCAASGFTLNNYWMHWVRQAPGKGLVWVAHINIDGSTTTYADSVKGRFTISRDNAKNTLYLQMNSLRAEDTAVYYCAKGSIKAGGFWSGYSNWFDPWGQGTLVTVSS VL: QAVVTQEPSLTVSPGGTVTLTCDSDPGPVTSGHYPYWFQQKPGQVPRTLIYDTSNKHSWTPARFSGSLLGGKAALTLSGAQPEDEADYYCLLSYGGAPVFGGGTKLTVL"
  recorded_metric: "binding result"
  result: "binds"
- binder: "MGU1 (antibody, V domains shown) VH: QVQLVESGGGVVQPGRSLRLSCAASGFAFSSYGMNWVRQAPGKGLEWVAVIWHDGTNKYYRDSVKGRFIISRDNAKNTLYLQMDSLSAEDTAMYYCAIWYLDSPDHGFDIWGRGTMVTVSS VL: QLVLTQSPSASASLGVSVTLTCTLNNGHSSNAIAWHQQQPGKGPRYLMKVNSDGSHNKGAAVPDRFSGSSSGTERHLTISSLQSDDEADYYCQAWDSGIWVFGGGTKLTVL"
  recorded_metric: "binding result"
  result: "binds"
- binder: "MGG8 (antibody, V domains shown) VH: EVQLVESGGGLVQPGGSLKLSCAASGFMISGSVLHWVRQASGKGLEWLGRIRDKANNEATAYAASVKGRFTISRDDSKDTTYLQMNSLRIEDTAVYYCTRGIIVGDTWHFDPWGQGTLVTVSS VL: DIVMTQTPLSLSVTPGQTASISCKSSESLLRSDGKTYLYWYLQKPGQSPQLLMYEVSKRFSGVPDRFSGSGSGTDFTLKISRVETDDVGIYYCMQSIQLVTFGQGTKVEIK"
  recorded_metric: "binding result"
  result: "binds"
